Provenance of the data: patent US20220411498A1

Target: T1, huCD39 on the cell surface (293T/17-huCD39 cells) (human, UniProt P49961 1-510)
T1 construct: whole, on cells; also called natural CD39 protein on the cell surface; huCD39 antigen on the cell surface
T1 sequence (looked up): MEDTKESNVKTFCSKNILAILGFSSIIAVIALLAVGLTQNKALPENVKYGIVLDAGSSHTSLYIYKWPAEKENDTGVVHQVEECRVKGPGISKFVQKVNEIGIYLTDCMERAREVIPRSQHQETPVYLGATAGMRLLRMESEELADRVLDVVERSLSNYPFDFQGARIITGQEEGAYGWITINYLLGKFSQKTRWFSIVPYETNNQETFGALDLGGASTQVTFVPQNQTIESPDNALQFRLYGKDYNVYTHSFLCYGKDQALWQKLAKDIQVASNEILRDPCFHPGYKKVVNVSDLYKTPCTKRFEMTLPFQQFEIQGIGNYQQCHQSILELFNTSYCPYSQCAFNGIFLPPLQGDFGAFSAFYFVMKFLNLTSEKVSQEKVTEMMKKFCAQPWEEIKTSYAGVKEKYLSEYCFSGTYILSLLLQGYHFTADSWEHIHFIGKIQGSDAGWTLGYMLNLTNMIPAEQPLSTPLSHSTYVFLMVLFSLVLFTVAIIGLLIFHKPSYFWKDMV
Experiment: flow cytometry on 293T/17-huCD39 cells
List of Bottom values.

| binder | Bottom |
| --- | --- |
| 219 hIgG2 (antibody, V domains shown, Chimeric antibody: mouse Fv fused to the human IgG2 constant region; also called chimeric antibody 219) VH: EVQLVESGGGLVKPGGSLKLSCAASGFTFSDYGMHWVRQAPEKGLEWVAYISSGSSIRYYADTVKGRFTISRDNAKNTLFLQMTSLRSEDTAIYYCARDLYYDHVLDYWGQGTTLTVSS VL: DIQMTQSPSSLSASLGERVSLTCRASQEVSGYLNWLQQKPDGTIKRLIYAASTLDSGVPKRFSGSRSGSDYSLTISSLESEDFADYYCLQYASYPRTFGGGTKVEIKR | 3.81 |
| 217 hIgG2 (antibody, V domains shown, Chimeric antibody: mouse Fv fused to the human IgG2 constant region) VH: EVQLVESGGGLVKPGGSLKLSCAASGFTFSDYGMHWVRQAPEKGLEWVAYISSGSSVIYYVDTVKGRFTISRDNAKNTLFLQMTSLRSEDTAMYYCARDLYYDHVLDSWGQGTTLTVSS VL: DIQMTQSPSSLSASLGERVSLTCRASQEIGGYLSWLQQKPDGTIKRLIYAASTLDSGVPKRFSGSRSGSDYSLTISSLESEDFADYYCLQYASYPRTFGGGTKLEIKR | 5.8 |
| 201 hIgG2 (antibody, V domains shown, Chimeric antibody: mouse Fv fused to the human IgG2 constant region, expressed in 293F cells; also called chimeric antibody 201) VH: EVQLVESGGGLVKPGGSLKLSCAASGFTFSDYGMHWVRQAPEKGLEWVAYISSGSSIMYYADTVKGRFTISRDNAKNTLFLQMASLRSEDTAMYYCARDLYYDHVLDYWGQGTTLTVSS VL: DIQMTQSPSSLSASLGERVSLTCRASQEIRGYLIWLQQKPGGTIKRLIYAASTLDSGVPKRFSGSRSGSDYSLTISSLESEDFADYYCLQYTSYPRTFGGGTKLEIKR | -6.24 |
| 216 hIgG2 (antibody, V domains shown, Chimeric antibody: mouse Fv fused to the human IgG2 constant region; also called chimeric antibody 216) VH: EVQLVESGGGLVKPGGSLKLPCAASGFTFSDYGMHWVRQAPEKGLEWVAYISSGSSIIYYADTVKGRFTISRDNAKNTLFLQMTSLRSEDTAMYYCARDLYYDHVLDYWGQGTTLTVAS VL: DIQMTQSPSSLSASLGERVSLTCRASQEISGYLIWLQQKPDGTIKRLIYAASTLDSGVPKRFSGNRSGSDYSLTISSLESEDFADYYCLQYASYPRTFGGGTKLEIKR | 2.17 |
